system: CASOB (Sicklepod); assay: Preemergence herbicidal evaluation; type: in vivo, Cassia obtusifolia; details: preemergence, 0.2500 kg/ha, rated 4-5 weeks after treatment, 0-9 scale
PARAMETER MEASURED: CASOB rating
// return a plain number; no unit text

GET /values?readout=CASOB rating&item= `COC(=O)C1(N2C(=O)CSC2=Nc2cc(-n3c(=O)cc(C(F)(F)F)n(C)c3=O)c(F)cc2Cl)CCCCC1` 0.0

Form field: reported CASOB rating of CCOC(=O)CN1C(=O)C(CC(=O)OC(C)C(=O)OCC)S/C1=N/c1cc(-n2c(=O)cc(C(F)(F)F)n(C)c2=O)c(F)cc1Cl (centres unmarked) 0.0

Which measured CASOB rating value corresponds to CCS(=O)(=O)NC(=O)CC1SC(=Nc2cc(-n3c(=O)cc(C(F)(F)F)n(C)c3=O)c(F)cc2Cl)N(C)C1=O (centres unmarked) ? 0.0

Look up CASOB rating for this compound: C=CCN1C(=O)C(CC(N)=O)SC1=Nc1cc(-n2c(=O)cc(C(F)(F)F)n(C)c2=O)c(F)cc1Cl (centres unmarked) 3.0

I am curious: what CASOB rating value has been reported for CCOC(=O)CN1C(=O)C(CC(=O)OCCF)SC1=Nc1cc(-n2c(=O)cc(C(F)(F)F)n(C)c2=O)c(F)cc1Cl (centres unmarked) ? 9.0

----------
Answer each item with its documented Preemergence herbicidal rating CASOB.
system: CASOB (Sicklepod); assay: Preemergence herbicidal evaluation; type: in vivo, Cassia obtusifolia; settings: rate 0.5000 kg/ha; rated 4-5 weeks after treatment
# output: bare number, no unit

Would you kindly share the measured Preemergence herbicidal rating CASOB for CCOC(=O)CN1C(=O)C(CC(=O)OC(C)C)SC1=Nc1cc(-n2c(=O)cc(C(F)(F)F)n(C)c2=O)c(F)cc1Cl (centres unmarked) ? 4.0

Consider the molecule CCOC(=O)CN1C(=O)C(SC)SC1=Nc1cc(-n2c(=O)cc(C(F)(F)F)n(C)c2=O)c(F)cc1Cl (centres unmarked) and give its measured Preemergence herbicidal rating CASOB. 9.0

Find the recorded Preemergence herbicidal rating CASOB belonging to CCOC(=O)CN1C(=O)C(Cl)SC1=Nc1cc(-n2c(=O)cc(C(F)(F)F)n(C)c2=O)c(F)cc1Cl (centres unmarked) and report it. 3.0

Look at this molecule and give its reported Preemergence herbicidal rating CASOB. C=CCN1C(=O)C(CC(=O)Nc2ccccc2)SC1=Nc1cc(-n2c(=O)cc(C(F)(F)F)n(C)c2=O)c(F)cc1Cl (centres unmarked) 1.0

What does the record list as Preemergence herbicidal rating CASOB for `Cn1c(C(F)(F)F)cc(=O)n(-c2cc(N=C3SCC(=O)N3CC(=O)OCC#N)c(Cl)cc2F)c1=O` ? 9.0

----------
test system: ZEAMX (Corn, Field); assay: Preemergence herbicidal evaluation; type: in vivo, Zea mays; settings: rate 0.0625 kg/ha; rated 4-5 weeks after treatment; rating scale 0-9
PARAMETER MEASURED: Preemergence herbicidal rating ZEAMX

Recorded Preemergence herbicidal rating ZEAMX of `COc1cccc(CN2C(=O)CSC2=Nc2cc(-n3c(=O)cc(C(F)(F)F)n(C)c3=O)c(F)cc2Cl)c1` , please. 0.0

I'd like to know its Preemergence herbicidal rating ZEAMX. The compound in question is `Cn1c(C(F)(F)F)cc(=O)n(-c2cc(N=C3SCC(=O)N3Cc3ccccc3Cl)c(Cl)cc2F)c1=O` 0.0

Look up Preemergence herbicidal rating ZEAMX: `Cc1ccc(CN2C(=O)CSC2=Nc2cc(-n3c(=O)cc(C(F)(F)F)n(C)c3=O)c(F)cc2Cl)cc1C` 0.0

Which Preemergence herbicidal rating ZEAMX value belongs to `Cn1c(C(F)(F)F)cc(=O)n(-c2cc(N=C3SCC(=O)N3Cc3cccc(C(F)(F)F)c3)c(Cl)cc2F)c1=O` ? 0.0

Sample `Cn1c(C(F)(F)F)cc(=O)n(-c2cc(N=C3SCC(=O)N3C3CC3)c(Cl)cc2F)c1=O` — what was its Preemergence herbicidal rating ZEAMX? 1.0

Quick one: Preemergence herbicidal rating ZEAMX for `CSCCN1C(=O)CSC1=Nc1cc(-n2c(=O)cc(C(F)(F)F)n(C)c2=O)c(F)cc1Cl` ? 0.0
